experiment: qHTS of pediatric cancer cell lines to identify multiple opportunities for drug repurposing: Confirmatory screen for RD cells (AID 1347124); details: RD rhabdomyosarcoma cell viability; series mostly up to 45.9 µM;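 further: cells exposed to compound for 48 h before viability readout; nearly all actives have a fitted effect of over 65% in size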; further: potency means the concentration at half of the fitted maximal effect
Inconclusive results are not listed. Active and inactive are the calls of the source. The call rests on the fitted dose curve; in most records, active means well fitted cell-killing curve with a large enough effect; inconclusive means small, poorly fitted or top-dose-only effect, or effect the other way; inactive means no such curve, though single readings can be large or run the other way.
reported.property: Potency

Answered examples (10):
1) CN[C@@H]1CN(c2ccc3c(=O)c(C(=O)O)cn(-c4nccs4)c3n2)C[C@@H]1OC; 14.4 µM (active)
2) CN1CCN(c2ncc(-c3cc(Cl)cc(Cl)c3Cl)c(N)n2)CC1; inactive
3) COC(=O)[C@H](c1ccccc1Cl)N1CCc2sccc2C1; inactive
4) Cc1cnc(-c2cc(N3CCN(C(=O)CCS(C)(=O)=O)CC3)ncc2Cl)c(C)c1; inactive
5) CCC[C@H](N[C@@H](C)C(=O)N1[C@@H]2CCCC[C@H]2C[C@H]1C(=O)O)C(=O)OCC; inactive
6) CC1=C(CC(=O)O)c2cc(F)ccc2C1=Cc1ccc(S(C)=O)cc1 (stereo unspecified); inactive
7) CC[C@]1(O)C[C@H]2CN(CCC3=c4ccccc4=N[C]3[C@@](C(=O)OC)(c3cc4c(cc3OC)N(C)[C@H]3[C@@](O)(C(N)=O)[C@H](O)[C@]5(CC)C=CCN6CC[C@]43[C@@H]65)C2)C1; 0.369 µM (active)
8) Cc1ccc(C(=O)N(CCCN)[C@@H](c2nc3cc(Cl)ccc3c(=O)n2Cc2ccccc2)C(C)C)cc1; 2.4 µM (active)
9) O=C1Nc2ccc(I)cc2C1=Cc1cc(Br)c(O)c(Br)c1; inactive
10) CSc1cccc(Nc2ncc3cc(-c4c(Cl)cccc4Cl)c(=O)n(C)c3n2)c1; 0.369 µM (active)

Value of measured Potency for the entry CC[C@H](NC(=O)[C@H](C)NC)C(=O)N1C[C@@H](O)C[C@H]1Cc1c(-c2[nH]c3cc(F)ccc3c2C[C@H]2C[C@H](O)CN2C(=O)[C@H](CC)NC(=O)[C@H](C)NC)[nH]c2cc(F)ccc12 : inactive

// recorded Potency for CCOC(=O)[C@H](CCc1ccccc1)N[C@@H](C)C(=O)N1CCCC1C(=O)O (stereo partly specified) : 13.1 µM (active)

Per the records, this molecule ( Nc1ccc(-c2ccc3ncc4ccc(=O)n(-c5cccc(C(F)(F)F)c5)c4c3c2)cn1 ) has Potency equal to 0.233 µM (active)

In plain terms, CC1(COc2ccc3c(c2)ncn3-c2ccc3cccc(N4CCC(N)CC4)c3n2)COC1 has a documented Potency of inactive

Reported Potency ( COc1cc([C@@H]2c3cc4c(cc3[C@@H](O[C@@H]3O[C@@H]5CO[C@@H](C)O[C@@H]5[C@H](O)[C@@H]3O)[C@H]3COC(=O)[C@H]23)OCO4)cc(OC)c1O ) = inactive

The molecule identified as OCCn1cc(-c2ccc3c(c2)CCC3=NO)c(-c2ccncc2)n1 registered its Potency at 8.51 µM (active)

Lab note: CCC(=O)N1CCN(c2ccc(-n3c(=O)ccc4cnc5ccc(-c6cnc7ccccc7c6)cc5c43)cc2C(F)(F)F)CC1 gave Potency of inactive

Looking up CCN(CCO)CCCOc1ccc2c(Nc3cc(CC(=O)Nc4cccc(F)c4)[nH]n3)ncnc2c1 , I see its Potency listed as inactive
